assay: self-splicing fitness, log relative to wild type (ln ratio); higher = more splicing; Tetrahymena group I intron in knt gene, E. coli kanamycin selection, DiMSum; sequences stand for … in CUCUCU…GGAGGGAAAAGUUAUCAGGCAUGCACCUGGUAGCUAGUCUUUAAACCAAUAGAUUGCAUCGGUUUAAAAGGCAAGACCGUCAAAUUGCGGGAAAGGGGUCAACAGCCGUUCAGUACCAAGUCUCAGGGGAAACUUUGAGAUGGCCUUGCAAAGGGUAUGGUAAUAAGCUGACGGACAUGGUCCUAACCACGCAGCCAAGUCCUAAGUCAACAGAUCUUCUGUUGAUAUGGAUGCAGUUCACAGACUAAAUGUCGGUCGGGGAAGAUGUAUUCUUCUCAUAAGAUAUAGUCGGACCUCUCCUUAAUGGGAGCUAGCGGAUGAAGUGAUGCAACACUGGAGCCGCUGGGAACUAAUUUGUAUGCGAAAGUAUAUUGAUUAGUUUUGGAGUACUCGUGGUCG; details: 30 °C;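 further: selection with 25 µg/mL kanamycin versus none on LB agar overnight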
Binning of self-splicing fitness (ln) into classes: class A: < -2; class B: ≥ -2 and < -1; class C: ≥ -1

{"Sequence Content": "AAUUAGCAAUAUUACGUUCG", "Category": "class B"}
{"Sequence Content": "AAGUAGCAAUAUUACGUAUG", "Category": "class A"}
{"Sequence Content": "GGGUAGCAAUAUUACGGAGU", "Category": "class A"}
{"Sequence Content": "CCCUAGCAAUAUUACGCAGA", "Category": "class A"}
{"Sequence Content": "AGUAAGCAAUAUUACGCAGG", "Category": "class A"}

Which category fits this record: "UAUCAGCAAUAUUACGUCAA"
class C

Which category fits this record: "GAGAAGCAAUAUUACGGUUA"
class B

Which category fits this record: "AGUAAGCAAUAUUACGGACG"
class C

Which category fits this record: "GAUCAGCAAUAUUACGUCUC"
class C

Which category fits this record: "UGCGAGCAAUAUUACGUCUG"
class B

Which category fits this record: "CUGCAGCAAUAUUACGAGAC"
class A

Which category fits this record: "CCUGAGCAAUAUUACGCUCG"
class A

Which category fits this record: "GCACAGCAAUAUUACGAUUA"
class B

Which category fits this record: "CAUAAGCAAUAUUACGACGG"
class C

Which category fits this record: "GCAAAGCAAUAUUACGAACA"
class B

Which category fits this record: "UCAGAGCAAUAUUACGGUUC"
class A

----------
Below, each of the sequences is paired with its reported self-splicing fitness (ln) value.
test: self-splicing fitness, log relative to wild type (ln ratio); higher = more splicing; Tetrahymena group I intron in knt gene, E. coli kanamycin selection, DiMSum; sequences stand for … in CUCUCU…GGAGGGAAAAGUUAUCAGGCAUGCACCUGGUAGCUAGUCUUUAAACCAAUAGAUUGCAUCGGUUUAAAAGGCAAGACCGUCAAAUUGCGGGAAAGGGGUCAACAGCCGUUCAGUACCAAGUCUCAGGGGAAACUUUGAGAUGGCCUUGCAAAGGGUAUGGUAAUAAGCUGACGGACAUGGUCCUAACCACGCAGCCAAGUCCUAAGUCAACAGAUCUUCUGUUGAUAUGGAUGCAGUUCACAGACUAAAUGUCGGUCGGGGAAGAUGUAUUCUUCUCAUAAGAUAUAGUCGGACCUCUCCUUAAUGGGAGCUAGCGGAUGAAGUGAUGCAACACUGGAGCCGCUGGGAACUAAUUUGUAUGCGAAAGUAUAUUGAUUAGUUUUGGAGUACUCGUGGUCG; details: 30 °C
Give the figure only, with no unit attached.

{"Sequence Content": "GCCGAGCAAUAUUACGUGCG", "self-splicing fitness (ln)": -2.17}
{"Sequence Content": "GUUGAGCAAUAUUACGUCGG", "self-splicing fitness (ln)": -3.61}

Can you look up the measured self-splicing fitness (ln) of "UUCAAGCAAUAUUACGGAUA" for me?
-1.18

Can you look up the measured self-splicing fitness (ln) of "CACAAGCAAUAUUACGCGUU" for me?
-2.55

Can you look up the measured self-splicing fitness (ln) of "GCAGAGCAAUAUUACGAUCC" for me?
-2.13

Can you look up the measured self-splicing fitness (ln) of "GUAAAGCAAUAUUACGACGA" for me?
0.208

Can you look up the measured self-splicing fitness (ln) of "UCACAGCAAUAUUACGUUAU" for me?
-3.61

----------
Below, each of the sequences is paired with its reported self-splicing fitness (ln) value.
test: self-splicing fitness, log relative to wild type (ln ratio); higher = more splicing; Tetrahymena group I intron in knt gene, E. coli kanamycin selection, DiMSum; sequences stand for … in CUCUCU…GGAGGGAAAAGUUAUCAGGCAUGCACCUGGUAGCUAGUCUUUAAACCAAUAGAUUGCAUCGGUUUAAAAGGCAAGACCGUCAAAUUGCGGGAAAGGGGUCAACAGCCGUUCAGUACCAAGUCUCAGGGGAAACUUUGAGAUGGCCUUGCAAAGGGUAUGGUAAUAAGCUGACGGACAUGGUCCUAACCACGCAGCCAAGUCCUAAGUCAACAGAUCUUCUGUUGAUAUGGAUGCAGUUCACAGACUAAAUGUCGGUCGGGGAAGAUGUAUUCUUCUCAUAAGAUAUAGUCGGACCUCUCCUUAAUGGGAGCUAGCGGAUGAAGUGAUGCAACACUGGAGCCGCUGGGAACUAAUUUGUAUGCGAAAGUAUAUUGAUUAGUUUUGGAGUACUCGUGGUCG; details: 37 °C

{"Sequence Content": "UAAAAGCAAUAUUACGGAUG", "Quantity": "self-splicing fitness (ln)", "Assay Result": 0.0272}

Can you look up the measured self-splicing fitness (ln) of "GGACAGCAAUAUUACGUAGC" for me?
-0.618

Can you look up the measured self-splicing fitness (ln) of "UACUAGCAAUAUUACGAUCG" for me?
0.387

Can you look up the measured self-splicing fitness (ln) of "GAUGAGCAAUAUUACGGAAA" for me?
-2.2

Can you look up the measured self-splicing fitness (ln) of "GGAAAGCAAUAUUACGCGCU" for me?
-1.37

Can you look up the measured self-splicing fitness (ln) of "GGCAAGCAAUAUUACGUAAC" for me?
-0.533

Can you look up the measured self-splicing fitness (ln) of "UCGGAGCAAUAUUACGAGUG" for me?
-2.48

Can you look up the measured self-splicing fitness (ln) of "CAGAAGCAAUAUUACGUGAG" for me?
-0.806

----------
assay: self-splicing fitness, log relative to wild type (ln ratio); higher = more splicing; Tetrahymena group I intron in knt gene, E. coli kanamycin selection, DiMSum; sequences stand for … in CUCUCU…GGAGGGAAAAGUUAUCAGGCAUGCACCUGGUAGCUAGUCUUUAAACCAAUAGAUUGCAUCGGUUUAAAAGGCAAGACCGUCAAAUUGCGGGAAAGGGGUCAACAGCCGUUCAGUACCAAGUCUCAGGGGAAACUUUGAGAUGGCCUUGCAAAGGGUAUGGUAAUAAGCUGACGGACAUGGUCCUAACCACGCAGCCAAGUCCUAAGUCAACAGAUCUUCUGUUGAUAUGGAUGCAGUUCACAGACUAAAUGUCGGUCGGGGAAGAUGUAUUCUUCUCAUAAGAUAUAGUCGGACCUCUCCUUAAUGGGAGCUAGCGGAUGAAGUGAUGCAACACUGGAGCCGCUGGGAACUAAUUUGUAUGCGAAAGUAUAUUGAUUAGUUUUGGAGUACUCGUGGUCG; settings: 37 °C
Below, each of the sequences is paired with its reported self-splicing fitness (ln) value.
Give the figure only, with no unit attached.

Some entries whose results are on file:
{"Sequence Content": "AUCAAGCAAUAUUACGUGAA", "Assay Result": -1.45}
{"Sequence Content": "AUACAGCAAUAUUACGCAUA", "Assay Result": -0.743}
{"Sequence Content": "UGUAAGCAAUAUUACGUGGC", "Assay Result": -2.26}
{"Sequence Content": "AAGGAGCAAUAUUACGUUGC", "Assay Result": -1.71}
{"Sequence Content": "AGGAAGCAAUAUUACGUGAC", "Assay Result": -2.45}

// switching to the query sequence
Can you look up the measured self-splicing fitness (ln) of "UAUGAGCAAUAUUACGGUGC" for me?
-0.888

----------
test: self-splicing fitness, log relative to wild type (ln ratio); higher = more splicing; Tetrahymena group I intron in knt gene, E. coli kanamycin selection, DiMSum; sequences stand for … in CUCUCU…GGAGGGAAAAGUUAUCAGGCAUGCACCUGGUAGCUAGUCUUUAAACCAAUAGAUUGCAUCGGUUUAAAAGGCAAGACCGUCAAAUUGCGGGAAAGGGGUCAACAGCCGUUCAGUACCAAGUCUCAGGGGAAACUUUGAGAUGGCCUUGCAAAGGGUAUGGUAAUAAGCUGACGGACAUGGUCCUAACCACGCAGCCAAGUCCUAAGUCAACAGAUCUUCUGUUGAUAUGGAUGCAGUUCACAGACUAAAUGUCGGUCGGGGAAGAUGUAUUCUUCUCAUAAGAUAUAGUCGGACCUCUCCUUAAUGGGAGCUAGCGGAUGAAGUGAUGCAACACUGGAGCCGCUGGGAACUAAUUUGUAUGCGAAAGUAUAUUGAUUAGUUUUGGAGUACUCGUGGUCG; settings: 37 °C
Below, each of the sequences is paired with its reported self-splicing fitness (ln) value.

Can you look up the measured self-splicing fitness (ln) of "CCACAGCAAUAUUACGCCAG" for me?
-1.07

Can you look up the measured self-splicing fitness (ln) of "UGUAAGCAAUAUUACGGCUU" for me?
-1.15

Can you look up the measured self-splicing fitness (ln) of "AACAAGCAAUAUUACGGCGA" for me?
-0.329

Can you look up the measured self-splicing fitness (ln) of "AACUAGCAAUAUUACGGGAA" for me?
-1.13

Can you look up the measured self-splicing fitness (ln) of "UCCCAGCAAUAUUACGCCAU" for me?
-2.83

Can you look up the measured self-splicing fitness (ln) of "CCGCAGCAAUAUUACGCUGU" for me?
-2.85

Can you look up the measured self-splicing fitness (ln) of "GUAAAGCAAUAUUACGCGCU" for me?
-0.523

Can you look up the measured self-splicing fitness (ln) of "ACCGAGCAAUAUUACGGGGG" for me?
-3.18

Can you look up the measured self-splicing fitness (ln) of "UAACAGCAAUAUUACGGUGA" for me?
-0.658

Can you look up the measured self-splicing fitness (ln) of "GCCCAGCAAUAUUACGUUUC" for me?
-1.37

Can you look up the measured self-splicing fitness (ln) of "GUACAGCAAUAUUACGUGGC" for me?
-1.75

Can you look up the measured self-splicing fitness (ln) of "ACUGAGCAAUAUUACGAAGU" for me?
-3.03

Can you look up the measured self-splicing fitness (ln) of "GUCAAGCAAUAUUACGUAGU" for me?
-0.468

Can you look up the measured self-splicing fitness (ln) of "CCGGAGCAAUAUUACGCGUC" for me?
-2.18

Can you look up the measured self-splicing fitness (ln) of "CAUUAGCAAUAUUACGAGAC" for me?
-1.57
